Where these numbers come from: patent US20230365675A1

biological target: Biotinylated CD33 protein (UniProt P20138); assay: Octet competition on biotinylated CD33; competitor 424
Sequence (P20138 18-259 limits assumed): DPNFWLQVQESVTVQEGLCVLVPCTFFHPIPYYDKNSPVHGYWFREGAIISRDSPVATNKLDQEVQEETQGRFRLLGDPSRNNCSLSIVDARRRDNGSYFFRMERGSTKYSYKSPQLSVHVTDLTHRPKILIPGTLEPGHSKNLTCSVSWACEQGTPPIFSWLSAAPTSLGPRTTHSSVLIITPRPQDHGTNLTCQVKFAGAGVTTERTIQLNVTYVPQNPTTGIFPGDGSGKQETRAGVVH
Entries get a class label from measured Octet signal. See ranges: bottom range (below -0.1), center range (-0.1 to below 0.04), top range (0.04 or more)

{"binder": "sdCD33_9 (VHH, sdAb from a naive llama phage library; also called 426; sdAb426) VHH: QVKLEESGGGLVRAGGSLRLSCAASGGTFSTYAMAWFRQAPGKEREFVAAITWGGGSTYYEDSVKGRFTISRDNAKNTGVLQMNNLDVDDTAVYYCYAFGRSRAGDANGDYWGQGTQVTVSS", "class-label": "top range"}
{"binder": "sdCD33_6 (VHH, sdAb from a naive llama phage library; also called 416; sdAb416) VHH: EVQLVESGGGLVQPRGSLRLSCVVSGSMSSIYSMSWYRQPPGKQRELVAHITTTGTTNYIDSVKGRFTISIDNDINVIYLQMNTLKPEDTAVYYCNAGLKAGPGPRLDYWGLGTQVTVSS", "class-label": "top range"}
{"binder": "sdCD33_4 (VHH) VHH: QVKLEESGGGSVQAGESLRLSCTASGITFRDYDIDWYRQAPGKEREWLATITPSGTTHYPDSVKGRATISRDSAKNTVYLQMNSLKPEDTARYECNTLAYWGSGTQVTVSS", "class-label": "bottom range"}
{"binder": "sdCD33_5 (VHH, sdAb from a naive llama phage library; also called 413; sdAb413) VHH: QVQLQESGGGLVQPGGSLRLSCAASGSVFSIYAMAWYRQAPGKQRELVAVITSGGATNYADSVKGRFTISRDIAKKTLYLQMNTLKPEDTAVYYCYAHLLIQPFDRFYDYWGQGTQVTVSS", "class-label": "center range"}
{"binder": "sdCD33_3 (VHH) VHH: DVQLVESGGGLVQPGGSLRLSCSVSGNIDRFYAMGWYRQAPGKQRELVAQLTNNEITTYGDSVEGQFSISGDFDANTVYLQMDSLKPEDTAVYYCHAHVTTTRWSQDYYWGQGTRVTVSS", "class-label": "bottom range"}
{"binder": "sdCD33_11 (VHH, sdAb from a naive llama phage library; also called 430; sdAb430) VHH: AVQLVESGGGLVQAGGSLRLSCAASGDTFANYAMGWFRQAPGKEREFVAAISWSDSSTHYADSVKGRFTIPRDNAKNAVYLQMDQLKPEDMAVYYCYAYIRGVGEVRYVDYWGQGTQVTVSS", "class-label": "bottom range"}
{"binder": "sdCD33_2 (VHH) VHH: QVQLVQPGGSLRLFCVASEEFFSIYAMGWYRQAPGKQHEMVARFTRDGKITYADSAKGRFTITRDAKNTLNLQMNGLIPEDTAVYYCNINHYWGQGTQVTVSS", "class-label": "center range"}
{"binder": "sdCD33_10 (VHH) VHH: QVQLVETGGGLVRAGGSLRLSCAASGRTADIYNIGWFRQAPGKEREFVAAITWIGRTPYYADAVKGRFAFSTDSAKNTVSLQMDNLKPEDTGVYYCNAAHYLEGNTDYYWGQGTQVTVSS", "class-label": "top range"}

Prompt: Each binder maps to one class by Octet signal. Which class for sdCD33_7 (VHH, sdAb from a naive llama phage library; also called 420; sdAb420) VHH: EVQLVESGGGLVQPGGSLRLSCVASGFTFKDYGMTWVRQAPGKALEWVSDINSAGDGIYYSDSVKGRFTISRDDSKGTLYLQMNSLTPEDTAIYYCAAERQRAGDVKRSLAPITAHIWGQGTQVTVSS ?
Response: center range
